- experimental.protocol: Pharmacokinetic study in rats after oral administration of cinobufacini capsule (UPLC-MS/MS of plasma)
- Type: in vivo, rat
- details: male, Sprague-Dawley, in vivo; rat plasma, oral cinobufacini capsule 0.9 g/kg (low), mean ± SD, n = 6
# Satisfied = Cmax below 10 ng/mL (exclusive); Not satisfied = Cmax at/above 10 ng/mL

| molecule | assigned.label |
| --- | --- |
| C[C@]12CC[C@H](O)C[C@H]1CC[C@@H]1[C@@H]2C(=O)[C@@H](O)[C@]2(C)[C@@H](c3ccc(=O)oc3)CC[C@]12O [PBG, pseudobufarenogin] | Satisfied |
| C[C@]12CC[C@H](O)C[C@@]1(O)CC[C@@H]1[C@@H]2CC[C@]2(C)[C@@H](c3ccc(=O)oc3)[C@@H](O)[C@H]3O[C@]132 [DCT, desacetylcinobufotalin] | Satisfied |
| C[C@]12CC[C@H](O)C[C@@]1(O)CC[C@@H]1[C@@H]2CC[C@]2(C)[C@@H](c3ccc(=O)oc3)CC[C@]12O [TCG, telocinobufagin] | Not satisfied |
| C[C@]12CC[C@H](O)C[C@H]1CC[C@@H]1[C@@H]2CC[C@]2(C)[C@@H](c3ccc(=O)oc3)[C@@H](O)[C@H]3O[C@]132 [DCG, desacetylcinobufagin] | Not satisfied |
| C[C@]12CC[C@H](O)C[C@H]1CC[C@@H]1[C@@H]2[C@H](O)C(=O)[C@]2(C)[C@@H](c3ccc(=O)oc3)CC[C@]12O [ABG, arenobufagin] | Not satisfied |
| C[C@]12CC[C@H]3[C@@H](CC[C@]4(O)C[C@@H](O)CC[C@]34C=O)[C@@]1(O)CC[C@@H]2c1ccc(=O)oc1 [HBG, hellebrigenin] | Satisfied |
| C[C@]12CC[C@H](O)C[C@H]1CC[C@@H]1[C@@H]2[C@H](O)C[C@]2(C)[C@@H](c3ccc(=O)oc3)CC[C@]12O [GBL, gamabufotalin] | Not satisfied |
| C[C@]12CC[C@H](O)C[C@H]1CC[C@@H]1[C@@H]2CC[C@]2(C)[C@@H](c3ccc(=O)oc3)CC[C@]12O [BF, bufalin] | Not satisfied |

###

- experimental.protocol: Pharmacokinetic study in rats after oral administration of cinobufacini capsule (UPLC-MS/MS of plasma)
- Assay type: in vivo, rat
- details: male, Sprague-Dawley, in vivo; rat plasma, oral cinobufacini capsule 3.6 g/kg (high), mean ± SD, n = 6

| smiles.repr | unit.info | Cmax |
| --- | --- | --- |
| C[C@]12CC[C@H](O)C[C@H]1CC[C@@H]1[C@@H]2CC[C@]2(C)[C@@H](c3ccc(=O)oc3)CC[C@]12O | ng/mL | 322 |
| C[C@]12CC[C@H](O)C[C@H]1CC[C@@H]1[C@@H]2[C@H](O)C(=O)[C@]2(C)[C@@H](c3ccc(=O)oc3)CC[C@]12O | ng/mL | 77.9 |
| C[C@]12CC[C@H]3[C@@H](CC[C@]4(O)C[C@@H](O)CC[C@]34C=O)[C@@]1(O)CC[C@@H]2c1ccc(=O)oc1 | ng/mL | 18.2 |
| C[C@]12CC[C@H](O)C[C@H]1CC[C@@H]1[C@@H]2CC[C@]2(C)[C@@H](c3ccc(=O)oc3)[C@@H](O)[C@H]3O[C@]132 | ng/mL | 56.6 |
| C[C@]12CC[C@H](O)C[C@@]1(O)CC[C@@H]1[C@@H]2CC[C@]2(C)[C@@H](c3ccc(=O)oc3)CC[C@]12O | ng/mL | 253 |
| C[C@]12CC[C@H](O)C[C@H]1CC[C@@H]1[C@@H]2C(=O)[C@@H](O)[C@]2(C)[C@@H](c3ccc(=O)oc3)CC[C@]12O | ng/mL | 42.8 |
| C[C@]12CC[C@H](O)C[C@H]1CC[C@@H]1[C@@H]2[C@H](O)C[C@]2(C)[C@@H](c3ccc(=O)oc3)CC[C@]12O | ng/mL | 49.5 |
| C[C@]12CC[C@H](O)C[C@@]1(O)CC[C@@H]1[C@@H]2CC[C@]2(C)[C@@H](c3ccc(=O)oc3)[C@@H](O)[C@H]3O[C@]132 | ng/mL | 22.2 |

Ref: paper PMC9343874
